# Target Under Test: Matrix metalloproteinase-9 (Homo sapiens)
# Method: Inhibition of MMP9 in inflamed tissue isolated from chronic periodontitis patient at 500 ug/l after 15 to 30 mins by gelatin zymographic method relative to control
Property Name: inhibition (%)
Give a bare numeral; the unit % is implied.

Worked examples, 5 compounds total:
CCOC(=O)C1=C(C)NC(=O)NC1c1cc(=O)oc2ccc(C)cc12 (stereo not drawn) = 80
CCOC(=O)C1=C(C)NC(=S)NC1c1cc(=O)oc2cc(C)ccc12 (stereo not drawn) = 30
CCOC(=O)C1=C(C)NC(=S)NC1c1cc(=O)oc2c1ccc1ccccc12 (stereo not drawn) = 95
CN(C)[C@@H]1C(O)=C(C(N)=O)C(=O)[C@@]2(O)C(O)=C3C(=O)c4c(O)cccc4[C@@](C)(O)[C@H]3C[C@@H]12 = 100
CCOC(=O)C1=C(C)NC(=O)NC1c1cc(=O)oc2ccc(OC)cc12 (stereo not drawn) = 85

Lookup: Report measured inhibition; entry is CCOC(=O)C1=C(C)NC(=O)NC1c1cc(=O)oc2c1ccc1ccccc12 (stereo not drawn)
Found: 90

Lookup: Report measured inhibition; entry is CCOC(=O)C1=C(C)NC(=O)NC1c1cc(=O)oc2cc(C)ccc12 (stereo not drawn)
Found: 70

Lookup: Report measured inhibition; entry is CCOC(=O)C1=C(C)NC(=S)NC1c1cc(=O)oc2ccc(OC)cc12 (stereo not drawn)
Found: 10
